All figures here come from ChEMBL document CHEMBL3112392.

# System: K562
# TEST_NAME: Cytotoxicity against human K562 cells after 48 hrs by MTT assay
# Type: functional, cell-based
# RUN_PARAMETERS: K562, 48 h
IC50 overview
ENDPOINT_LABEL: IC50 (µM)

[[record]]
line_notation = "CN1CCN(CCOc2ccc(-c3c(-c4ccc(OCCN5CCN(C)CC5)cc4)c4ccccc4oc3=O)cc2)CC1"
endpoint_label = "IC50"
relational_operator = "="
recorded_result = 53.2

[[record]]
line_notation = "O=c1oc2ccccc2c(-c2ccc(OCCN3CCOCC3)cc2)c1-c1ccc(OCCN2CCOCC2)cc1"
endpoint_label = "IC50"
relational_operator = ">"
recorded_result = 100

[[record]]
line_notation = "O=c1oc2ccccc2c(-c2ccc(OCCN3CCCCC3)cc2)c1-c1ccc(OCCN2CCCCC2)cc1"
endpoint_label = "IC50"
relational_operator = "="
recorded_result = 5.44

[[record]]
line_notation = "O=c1oc2cc(OCCN3CCOCC3)ccc2c(-c2ccccc2)c1-c1ccc(OCCN2CCOCC2)cc1"
endpoint_label = "IC50"
relational_operator = ">"
recorded_result = 100

